Overview of recorded IC50 for various compounds
# TESTED TARGET: JAK2 (Homo sapiens, UniProt O60674)
# Construct: endogenous in cells
# Sequence (O60674 whole entry): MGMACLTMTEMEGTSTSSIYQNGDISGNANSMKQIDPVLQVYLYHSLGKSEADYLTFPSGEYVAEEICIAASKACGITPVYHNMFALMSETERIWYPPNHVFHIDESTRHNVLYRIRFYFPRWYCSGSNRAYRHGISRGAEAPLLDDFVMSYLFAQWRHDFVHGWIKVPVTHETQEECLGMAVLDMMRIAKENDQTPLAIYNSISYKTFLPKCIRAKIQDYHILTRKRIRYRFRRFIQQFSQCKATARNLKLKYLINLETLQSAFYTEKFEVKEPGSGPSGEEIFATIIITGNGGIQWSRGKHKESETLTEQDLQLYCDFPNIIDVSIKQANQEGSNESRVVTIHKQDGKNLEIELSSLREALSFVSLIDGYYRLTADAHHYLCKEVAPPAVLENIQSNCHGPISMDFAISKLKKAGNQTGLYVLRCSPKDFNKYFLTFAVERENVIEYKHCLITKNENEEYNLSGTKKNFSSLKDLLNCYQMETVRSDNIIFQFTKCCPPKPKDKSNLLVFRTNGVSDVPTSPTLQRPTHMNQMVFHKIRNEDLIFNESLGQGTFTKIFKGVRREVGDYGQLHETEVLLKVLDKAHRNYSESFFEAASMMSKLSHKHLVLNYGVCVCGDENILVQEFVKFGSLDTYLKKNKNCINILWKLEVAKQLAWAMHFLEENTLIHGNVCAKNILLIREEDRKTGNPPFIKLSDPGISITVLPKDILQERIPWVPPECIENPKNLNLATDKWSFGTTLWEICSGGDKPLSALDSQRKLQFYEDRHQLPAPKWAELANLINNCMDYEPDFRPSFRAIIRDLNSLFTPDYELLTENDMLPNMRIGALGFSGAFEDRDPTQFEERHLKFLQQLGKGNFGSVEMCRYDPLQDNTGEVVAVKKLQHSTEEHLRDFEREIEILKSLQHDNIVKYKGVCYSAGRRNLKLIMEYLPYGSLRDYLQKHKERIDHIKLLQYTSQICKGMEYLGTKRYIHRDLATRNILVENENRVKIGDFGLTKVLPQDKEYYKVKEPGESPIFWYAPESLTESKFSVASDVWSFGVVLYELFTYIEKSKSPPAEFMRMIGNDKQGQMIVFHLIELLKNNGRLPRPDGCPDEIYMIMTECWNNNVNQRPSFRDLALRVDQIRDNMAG
# PROTOCOL TEXT: Kinobeads assay, JAK2
# DETAILS: mixed Molt4/Ramos cell lysate, dot blot detection

# count of solved cases: 2
{"GIVEN SMILES": "Cn1cc(Nc2ncc3cnn(Cc4ccccc4C(N)=O)c3n2)cn1", "IC50": "1000 to 10000 nM"}
{"GIVEN SMILES": "Cc1c(F)cccc1Cn1ncc2cnc(Nc3cnn(CC(F)F)c3)nc21", "IC50": "1000 to 10000 nM"}

Attention now turns to another entry.
Incoming: IC50 of `Fc1ccc(F)c(Cn2ncc3cnc(Nc4cnn(CC(F)F)c4)nc32)c1F` on JAK2 (Homo sapiens, UniProt O60674)?
Outgoing: 100 to 1000 nM

---

Overview of recorded IC50 for various molecules
# TESTED TARGET: JAK2 (Homo sapiens, UniProt O60674)
# Construct: endogenous in cells
# PROTOCOL TEXT: Kinobeads assay, JAK2
# DETAILS: mixed Molt4/Ramos cell lysate, dot blot detection

# count of solved cases: 8
{"GIVEN SMILES": "Fc1cccc(F)c1Cn1ncc2cnc(Nc3cnn(CC(F)F)c3)nc21", "IC50": "1000 to 10000 nM"}
{"GIVEN SMILES": "CN1CCN(C(=O)c2ccc(-n3ncc4cnc(Nc5cnn(C)c5)nc43)cc2)CC1", "IC50": "1000 to 10000 nM"}
{"GIVEN SMILES": "COc1ccc(F)c(Cn2ncc3cnc(Nc4cnn(C)c4)nc32)c1", "IC50": "1000 to 10000 nM"}
{"GIVEN SMILES": "CNC(=O)Cn1cc(Nc2ncc3cnn(Cc4cccc(F)n4)c3n2)cn1", "IC50": "1000 to 10000 nM"}
{"GIVEN SMILES": "COc1cccc(F)c1Cn1ncc2cnc(Nc3cnn(C)c3)nc21", "IC50": "100 to 1000 nM"}
{"GIVEN SMILES": "Cn1cc(Nc2ncc3cnn(Cc4ccccc4NS(C)(=O)=O)c3n2)cn1", "IC50": "100 to 1000 nM"}
{"GIVEN SMILES": "OCCn1cc(Nc2ncc3cnn(Cc4ccccc4F)c3n2)cn1", "IC50": "100 to 1000 nM"}
{"GIVEN SMILES": "NC(=O)c1ccccc1Cn1ncc2cnc(Nc3cnn(CC(F)F)c3)nc21", "IC50": "1000 to 10000 nM"}

Incoming: Looking for the measured IC50 of `Cn1cc(Nc2ncc3cnn(Cc4ccccc4OCCOCc4ccccc4)c3n2)cn1` , can you help?
Outgoing: 1000 to 10000 nM

Incoming: Repeat with `Cn1cc(Nc2ncc3cnn(Cc4cccc(N[C@@H]5CCOC5)n4)c3n2)cn1`
Outgoing: ≥ 10000 nM

Incoming: Repeat with `Cn1cc(Nc2ncc3cnn(Cc4ccc(F)c(F)c4)c3n2)cn1`
Outgoing: 1000 to 10000 nM

Incoming: Repeat with `Cn1cc(Nc2ncc3cnn(Cc4c(F)cccc4F)c3n2)cn1`
Outgoing: 1000 to 10000 nM

Incoming: Repeat with `COc1nn(C)cc1Nc1ncc2cnn(Cc3ccccc3)c2n1`
Outgoing: ≥ 10000 nM

---

# TESTED TARGET: JAK3 (Homo sapiens)
# Construct: endogenous in cells
# PROTOCOL TEXT: Kinobeads assay, JAK3
# DETAILS: mixed Molt4/Ramos cell lysate, dot blot detection
READOUT TYPE: IC50

{"MOLECULE": "N#Cc1ccccc1Cn1ncc2cnc(Nc3cnn(CC(F)F)c3)nc21", "READOUT TYPE": "IC50", "RESULT": "< 100 nM"}
{"MOLECULE": "Cn1cc(Nc2ncc3cnn(Cc4ccccc4OCCOCc4ccccc4)c3n2)cn1", "READOUT TYPE": "IC50", "RESULT": "100 to 1000 nM"}
{"MOLECULE": "Cc1cccc(Cn2ncc3cnc(Nc4cnn(C)c4)nc32)c1", "READOUT TYPE": "IC50", "RESULT": "< 100 nM"}
{"MOLECULE": "CC(C)S(=O)(=O)Nc1cccc(Cn2ncc3cnc(Nc4cnn(C)c4)nc32)c1", "READOUT TYPE": "IC50", "RESULT": "100 to 1000 nM"}
{"MOLECULE": "CNC(=O)Cn1cc(Nc2ncc3cnn(Cc4ccccc4F)c3n2)cn1", "READOUT TYPE": "IC50", "RESULT": "< 100 nM"}
{"MOLECULE": "NS(=O)(=O)c1ccc(-n2ncc3cnc(Nc4cnn(CC(F)F)c4)nc32)cc1", "READOUT TYPE": "IC50", "RESULT": "100 to 1000 nM"}
{"MOLECULE": "COc1cccc(F)c1Cn1ncc2cnc(Nc3cnn(C)c3)nc21", "READOUT TYPE": "IC50", "RESULT": "< 100 nM"}
{"MOLECULE": "CN1CCCC(Cn2cc(Nc3ncc4cnn(Cc5ccccc5F)c4n3)cn2)C1 (stereo not drawn)", "READOUT TYPE": "IC50", "RESULT": "< 100 nM"}
{"MOLECULE": "COc1nn(CC(F)F)cc1Nc1ncc2cnn(Cc3ccccc3C#N)c2n1", "READOUT TYPE": "IC50", "RESULT": "< 100 nM"}
{"MOLECULE": "Fc1cccc(F)c1Cn1ncc2cnc(Nc3cnn(CC(F)F)c3)nc21", "READOUT TYPE": "IC50", "RESULT": "< 100 nM"}

Incoming: IC50 of `COc1ccc(F)c(Cn2ncc3cnc(Nc4cnn(C)c4)nc32)c1F` on JAK3 (Homo sapiens)?
Outgoing: < 100 nM

Incoming: Repeat with CC(O)Cn1cc(Nc2ncc3cnn(Cc4ccccc4F)c3n2)cn1 (stereo not drawn)
Outgoing: < 100 nM

---

# TESTED TARGET: JAK3 (Homo sapiens)
# Construct: endogenous in cells; host or cells: Mixed Molt4/Ramos lysate (1:2)
# Sequence (P52333 1-1124): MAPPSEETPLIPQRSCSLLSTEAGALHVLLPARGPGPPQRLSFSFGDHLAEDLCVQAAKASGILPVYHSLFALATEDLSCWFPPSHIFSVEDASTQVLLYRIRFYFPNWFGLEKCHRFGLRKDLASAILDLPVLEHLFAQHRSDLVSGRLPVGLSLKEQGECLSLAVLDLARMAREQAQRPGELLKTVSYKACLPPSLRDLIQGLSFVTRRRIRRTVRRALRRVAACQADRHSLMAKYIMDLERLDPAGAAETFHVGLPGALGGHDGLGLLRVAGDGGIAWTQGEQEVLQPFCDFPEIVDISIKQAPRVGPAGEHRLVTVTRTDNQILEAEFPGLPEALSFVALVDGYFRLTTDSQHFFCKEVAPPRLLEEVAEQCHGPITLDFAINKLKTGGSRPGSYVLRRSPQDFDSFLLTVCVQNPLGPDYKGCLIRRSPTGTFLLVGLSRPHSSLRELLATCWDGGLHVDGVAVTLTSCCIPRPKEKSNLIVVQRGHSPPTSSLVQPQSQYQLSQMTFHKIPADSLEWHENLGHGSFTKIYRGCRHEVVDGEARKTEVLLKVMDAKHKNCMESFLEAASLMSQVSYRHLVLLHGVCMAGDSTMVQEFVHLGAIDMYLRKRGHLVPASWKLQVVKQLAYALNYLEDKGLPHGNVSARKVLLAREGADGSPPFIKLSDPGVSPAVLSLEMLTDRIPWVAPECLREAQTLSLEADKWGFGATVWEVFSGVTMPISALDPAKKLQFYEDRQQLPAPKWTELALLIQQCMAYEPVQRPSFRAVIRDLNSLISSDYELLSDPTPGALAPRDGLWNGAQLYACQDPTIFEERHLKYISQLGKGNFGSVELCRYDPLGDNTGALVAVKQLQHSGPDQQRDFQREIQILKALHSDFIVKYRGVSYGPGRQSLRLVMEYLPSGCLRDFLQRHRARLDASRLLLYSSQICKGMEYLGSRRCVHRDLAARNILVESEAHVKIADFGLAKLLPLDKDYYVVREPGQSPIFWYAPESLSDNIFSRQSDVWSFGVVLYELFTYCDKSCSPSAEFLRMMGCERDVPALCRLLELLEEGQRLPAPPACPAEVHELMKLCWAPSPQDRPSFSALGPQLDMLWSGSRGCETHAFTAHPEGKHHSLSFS
# PROTOCOL TEXT: Kinobeads assay, JAK3
# Assay type: binding
# DETAILS: mixed Molt4/Ramos cell lysate, dot blot detection
pIC50: −log10 of the molar value.
READOUT TYPE: pIC50

{"MOLECULE": "OCCn1cc(Nc2ncc3cnn(Cc4ccccc4F)c3n2)cn1 [Example 34]", "pIC50": "> 7.00"}
{"MOLECULE": "COc1cc(-n2ncc3cnc(Nc4cnn(C)c4)nc32)ccc1F [Example 58]", "pIC50": "6.00 to 7.00"}
{"MOLECULE": "Cn1cc(Nc2ncc3cnn(Cc4cccc(OCCO)c4)c3n2)cn1 [Example 166]", "pIC50": "> 7.00"}
{"MOLECULE": "Cn1cc(Nc2ncc3cnn(-c4cccc(S(N)(=O)=O)c4)c3n2)cn1 [Example 122]", "pIC50": "6.00 to 7.00"}
{"MOLECULE": "Cn1cc(Nc2ncc3cnn(-c4ccc5c(c4)NC(=O)CO5)c3n2)cn1 [Example 219]", "pIC50": "> 7.00"}

Incoming: Looking for the measured pIC50 of CC(C)n1cc(Nc2ncc3cnn(Cc4ccccc4C#N)c3n2)cn1 [Example 12] , can you help?
Outgoing: > 7.00

Incoming: Repeat with COCCn1cc(Nc2ncc3cnn(Cc4ccccc4C#N)c3n2)c(C)n1 [Example 23]
Outgoing: 6.00 to 7.00

Incoming: Repeat with Cn1cc(Nc2ncc3cnn(Cc4cc(F)ccc4C#N)c3n2)cn1 [Example 52]
Outgoing: > 7.00

Incoming: Repeat with N#Cc1ccc(F)cc1Cn1ncc2cnc(Nc3cnn(CC(F)F)c3)nc21 [Example 130]
Outgoing: > 7.00

Incoming: Repeat with Cn1cc(Nc2ncc3cnn(Cc4cccc(C(N)=O)c4)c3n2)cn1 [Example 80]
Outgoing: > 7.00
